Just for reference, PubChem BioAssay AID2060897 is where these values come from.

Tested on: 966289-007-R4-J1-PDC complex spheroid viability
test: Anticancer human tumor 966289-007-R4-J1-PDC patient-derived pancreatic adenocarcinoma cell line growth inhibition [RAS]
condition description: curve of first compound; second compound 0.003 µM
pIC50: −log10 of the molar value.
recorded metric: pIC50

compound	pIC50
C=CC(=O)Nc1cc(Nc2nccc(-c3cn(C)c4ccccc34)n2)c(OC)cc1N(C)CCN(C)C + CCn1c(-c2cccnc2C(C)OC)c2c3cc(ccc31)N1CCOC(CC(NC(=O)C(C(C)C)N(C)C(=O)C3(F)CCN(C(=O)C#CC(C)(C)N(C)C)CC3)C(=O)N3CCCC(N3)C(=O)OCC(C)(C)C2)C1	< 6.00

Would you kindly look at the next entry?
Given CCN1CCN(Cc2ccc(Nc3ncc(F)c(-c4cc(F)c5nc(C)n(C(C)C)c5c4)n3)nc2)CC1 + CCn1c(-c2cc(N3CCN(C)CC3)cnc2C(C)OC)c2c3cc(ccc31)-c1csc(n1)CC(NC(=O)C1CC1C)C(=O)N1CCCC(N1)C(=O)OCC(C)(C)C2 , state its recorded pIC50.
< 6.00

----------
# key: entry, value: IC50
Test system: 966289-007-R4-J1-PDC complex spheroid viability
test: Anticancer human tumor 966289-007-R4-J1-PDC cell line growth inhibition [RAS];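 note: spheroids exposed to agents for one week before readout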
condition description: curve of first compound; second compound 3.16 µM
Just the number please, in µM, no unit attached.

compound	unit abbreviation	reading
CC(C)NCC(C(=O)N1CCN(c2ncnc3c2C(C)CC3O)CC1)c1ccc(Cl)cc1 (stereo not drawn) + C#Cc1c(F)ccc2cc(O)cc(-c3ncc4c(N5CC6CCC(C5)N6)nc(OCC56CCCN5CC(F)C6)nc4c3F)c12	µM	5.64

I'd like to know its IC50. The compound in question is CCC(CC)c1cc(NC2CCC(N)C2)n2nccc2n1 (stereo not drawn) + C#Cc1c(F)ccc2cc(O)cc(-c3ncc4c(N5CC6CCC(C5)N6)nc(OCC56CCCN5CC(F)C6)nc4c3F)c12
1.9

----------
Test system: 966289-007-R4-J1-PDC complex spheroid viability
test: Anticancer human tumor 966289-007-R4-J1-PDC cell line growth inhibition [RAS]; active means viability on the fitted dose curve at most 10% of control; inactive means the rest;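 note: spheroids exposed to agents for one week before readout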
condition description: second compound 1 µM; first compound 3.16 µM
One label from this list, please: class 1 for active, class 0 for inactive

Lab log entry: CC(=O)OC12COC1CC(O)C1(C)C(=O)C(O)C3=C(C)C(OC(=O)C(O)C(NC(=O)OC(C)(C)C)c4ccccc4)CC(O)(C(OC(=O)c4ccccc4)C21)C3(C)C (stereo unspecified) + C#Cc1c(F)ccc2cc(O)cc(-c3ncc4c(N5CC6CCC(C5)N6)nc(OCC56CCCN5CC(F)C6)nc4c3F)c12 — outcome as called in the assay?
class 0

Also CC1(O)CCCC1n1c(=O)c(C(F)F)cc2cnc(NC3CCN(S(C)(=O)=O)CC3)nc21 (stereo unspecified) + C=CC(=O)N1CCN(c2nc(OCC3CCCN3C)nc3c(F)c(-c4nc(N)cc(C)c4C(F)(F)F)c(Cl)cc23)C(C)C1 , if possible.
class 0

Likewise for C[C@@H](NC(=O)c1ncnc(N)c1Cl)c1ncc(C(=O)Nc2cc(C(F)(F)F)c(Cl)cn2)s1 + C#Cc1c(F)ccc2cc(O)cc(-c3ncc4c(N5CC6CCC(C5)N6)nc(OCC56CCCN5CC(F)C6)nc4c3F)c12 ?
class 0

Try CC1(O)CCCC1n1c(=O)c(C(F)F)cc2cnc(NC3CCN(S(C)(=O)=O)CC3)nc21 (stereo unspecified) + C#Cc1c(F)ccc2cc(O)cc(-c3ncc4c(N5CC6CCC(C5)N6)nc(OCC56CCCN5CC(F)C6)nc4c3F)c12 next.
class 0

Entry CCC(CC)c1cc(NC2CCC(N)C2)n2nccc2n1 (stereo unspecified) + C#Cc1c(F)ccc2cc(O)cc(-c3ncc4c(N5CC6CCC(C5)N6)nc(OCC56CCCN5CC(F)C6)nc4c3F)c12 please
class 1

Moving on to NC1c2ccccc2OC12CCN(c1cnc3c(N4CCCc5ncccc54)n[nH]c3n1)CC2 (stereo unspecified) + C#Cc1c(F)ccc2cc(O)cc(-c3ncc4c(N5CC6CCC(C5)N6)nc(OCC56CCCN5CC(F)C6)nc4c3F)c12
class 0

----------
System: 966289-007-R4-J1-PDC complex spheroid viability
test: Anticancer human tumor 966289-007-R4-J1-PDC cell line growth inhibition [RAS];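 note: spheroids exposed to agents for one week before readout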;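 for viability, T/C: percent viability relative to DMSO vehicle control wells as 100%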
condition description: second compound 0.0949 µM; first compound 3.16 µM; stronger effect = lower value
recorded metric: viability, T/C (%)
Kindly provide the numeric value in % only, without the unit symbol.

Some solved cases for reference:
molecule	viability, T/C (%)
C[C@@H](NC(=O)c1ncnc(N)c1Cl)c1ncc(C(=O)Nc2cc(C(F)(F)F)c(Cl)cn2)s1 + CCn1c(-c2cccnc2C(C)OC)c2c3cc(ccc31)N1CCOC(CC(NC(=O)C(C(C)C)N(C)C(=O)C3(F)CCN(C(=O)C#CC(C)(C)N(C)C)CC3)C(=O)N3CCCC(N3)C(=O)OCC(C)(C)C2)C1	106
CC(=O)OC12COC1CC(O)C1(C)C(=O)C(O)C3=C(C)C(OC(=O)C(O)C(NC(=O)OC(C)(C)C)c4ccccc4)CC(O)(C(OC(=O)c4ccccc4)C21)C3(C)C (centres undefined) + CCn1c(-c2cccnc2C(C)OC)c2c3cc(ccc31)N1CCOC(CC(NC(=O)C(C(C)C)N(C)C(=O)C3(F)CCN(C(=O)C#CC(C)(C)N(C)C)CC3)C(=O)N3CCCC(N3)C(=O)OCC(C)(C)C2)C1	16.5
CC(C)NCC(C(=O)N1CCN(c2ncnc3c2C(C)CC3O)CC1)c1ccc(Cl)cc1 (centres undefined) + CCn1c(-c2cccnc2C(C)OC)c2c3cc(ccc31)N1CCOC(CC(NC(=O)C(C(C)C)N(C)C(=O)C3(F)CCN(C(=O)C#CC(C)(C)N(C)C)CC3)C(=O)N3CCCC(N3)C(=O)OCC(C)(C)C2)C1	75.6

I am curious: what viability, T/C value has been reported for NC1c2ccccc2OC12CCN(c1cnc3c(N4CCCc5ncccc54)n[nH]c3n1)CC2 (centres undefined) + CCn1c(-c2cc(N3CCN(C)CC3)cnc2C(C)OC)c2c3cc(ccc31)-c1csc(n1)CC(NC(=O)C1CC1C)C(=O)N1CCCC(N1)C(=O)OCC(C)(C)C2 ?
92.8

----------
Test system: 966289-007-R4-J1-PDC complex spheroid viability
test: Anticancer human tumor 966289-007-R4-J1-PDC cell line growth inhibition [RAS]; active = viability on the fitted dose curve at most 10% of control; inactive = the rest;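 note: spheroids exposed to agents for one week before readout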
condition description: second compound 0.003 µM; first compound 0.316 µM
Respond only with the outcome that fits, drawn from TRUE = active, FALSE = inactive

Here's what some known entries look like.
compound	class assignment
CC(=O)OC12COC1CC(O)C1(C)C(=O)C(O)C3=C(C)C(OC(=O)C(O)C(NC(=O)OC(C)(C)C)c4ccccc4)CC(O)(C(OC(=O)c4ccccc4)C21)C3(C)C (stereo not drawn) + CCn1c(-c2cccnc2C(C)OC)c2c3cc(ccc31)N1CCOC(CC(NC(=O)C(C(C)C)N(C)C(=O)C3(F)CCN(C(=O)C#CC(C)(C)N(C)C)CC3)C(=O)N3CCCC(N3)C(=O)OCC(C)(C)C2)C1	FALSE
CC(Nc1ccc2c(c1)OCCn1cc(N3C(=O)OCC3C(F)F)nc1-2)C(N)=O (stereo not drawn) + CCn1c(-c2cccnc2C(C)OC)c2c3cc(ccc31)N1CCOC(CC(NC(=O)C(C(C)C)N(C)C(=O)C3(F)CCN(C(=O)C#CC(C)(C)N(C)C)CC3)C(=O)N3CCCC(N3)C(=O)OCC(C)(C)C2)C1	FALSE
Cc1nc(N2CCC3(CC2)COC(C)C3N)c(CO)nc1Sc1ccnc(N)c1Cl (stereo not drawn) + CCn1c(-c2cccnc2C(C)OC)c2c3cc(ccc31)N1CCOC(CC(NC(=O)C(C(C)C)N(C)C(=O)C3(F)CCN(C(=O)C#CC(C)(C)N(C)C)CC3)C(=O)N3CCCC(N3)C(=O)OCC(C)(C)C2)C1	FALSE

I would be grateful if you could indicate the recorded call for Cc1nc(N2CCC3(CC2)COC(C)C3N)c(CO)nc1Sc1ccnc(N)c1Cl (stereo not drawn) + CCn1c(-c2cc(N3CCN(C)CC3)cnc2C(C)OC)c2c3cc(ccc31)-c1csc(n1)CC(NC(=O)C1CC1C)C(=O)N1CCCC(N1)C(=O)OCC(C)(C)C2 .
FALSE

Let us now turn to C=CC(=O)Nc1cc(Nc2nccc(-c3cn(C)c4ccccc34)n2)c(OC)cc1N(C)CCN(C)C + CCn1c(-c2cccnc2C(C)OC)c2c3cc(ccc31)N1CCOC(CC(NC(=O)C(C(C)C)N(C)C(=O)C3(F)CCN(C(=O)C#CC(C)(C)N(C)C)CC3)C(=O)N3CCCC(N3)C(=O)OCC(C)(C)C2)C1
FALSE

Try this compound too: C[C@@H](NC(=O)c1ncnc(N)c1Cl)c1ncc(C(=O)Nc2cc(C(F)(F)F)c(Cl)cn2)s1 + CCn1c(-c2cccnc2C(C)OC)c2c3cc(ccc31)N1CCOC(CC(NC(=O)C(C(C)C)N(C)C(=O)C3(F)CCN(C(=O)C#CC(C)(C)N(C)C)CC3)C(=O)N3CCCC(N3)C(=O)OCC(C)(C)C2)C1
FALSE

Try O=C(c1ccc(F)c(F)c1Nc1ccc(I)cc1F)N1CC(O)([C@@H]2CCCCN2)C1 + CCn1c(-c2cc(N3CCN(C)CC3)cnc2C(C)OC)c2c3cc(ccc31)-c1csc(n1)CC(NC(=O)C1CC1C)C(=O)N1CCCC(N1)C(=O)OCC(C)(C)C2 next.
FALSE

Now consider Nc1ccn(C2OC(CO)C(O)C2(F)F)c(=O)n1 (stereo not drawn) + CCn1c(-c2cc(N3CCN(C)CC3)cnc2C(C)OC)c2c3cc(ccc31)-c1csc(n1)CC(NC(=O)C1CC1C)C(=O)N1CCCC(N1)C(=O)OCC(C)(C)C2 .
TRUE
